target: Dickkopf-related protein 1 (Homo sapiens); assay: small molecules binding DKK1 protein – biochemical, small-molecule microarray, 635 nm fluorescence scan, primary screen (AID 1106); conditions: higher = more signal;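 note: score merges emission near 667 nm with signal to noise over three replicate slides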
In this section, each of the compounds is paired with its reported composite z-score.
Form field (numeric): enter value without unit.

compound	targetOrTestSystem	composite z-score
CC(C)NC(=O)[C@@]1(C)c2ccccc2C(=O)N(Cc2ccc(OC(F)(F)F)cc2)[C@H]1c1ccc(CO)cc1	Dickkopf-related protein 1 (Homo sapiens)	-1.25
COC(=O)C(CC#Cc1ccc2c(c1)[C@]1(C(=O)N2)[C@H](c2ccc(O)cc2)N2[C@H](c3ccccc3)[C@H](c3ccccc3)OC(=O)[C@H]2[C@@H]1C(=O)NC[C@H](O)c1ccccc1)C(=O)OC	Dickkopf-related protein 1 (Homo sapiens)	0.432
C=CCN1C(=O)[C@]2(CCC(=O)OC(C)(C)C)N=C(c3ccc(OCCCO)cc3)O[C@@H]2c2ccccc21	Dickkopf-related protein 1 (Homo sapiens)	0.384

Consider `COC(=O)c1c(CC[C@@H](CO)NC(=O)N2CCC[C@H]2Cn2cc(C3(O)CCCCC3)nn2)oc(C(C)=O)c1C(=O)OC` . Its measured composite z-score is 0.336

Consider `[N-]=[N+]=Nc1ccccc1[C@H]1OC(c2ccc(OCCCO)cc2)=N[C@@]1(Cc1ccccc1)C(=O)NCCN1CCOCC1` . Its measured composite z-score is 0.196

Consider [N-]=[N+]=Nc1ccccc1C[C@]1(C(=O)NCC(O)CO)COC(c2ccc(OCCCO)cc2)=N1 (some centres not stated) . Its measured composite z-score is -0.975

Consider `COCCOC(=O)N1C(=O)[C@@]2(c3cc(C#CC4(O)CCCCCC4)ccc31)[C@H](c1ccc(O)cc1)N1[C@H](c3ccccc3)[C@H](c3ccccc3)OC(=O)[C@H]1[C@@H]2C(=O)N1CCN(c2ncccn2)CC1` . Its measured composite z-score is 0.063
